Every entry's value here was drawn from ChEMBL document CHEMBL1156590.

Task for the reader: assign each of the following compounds its reported IC50.
Protein target, amino acids: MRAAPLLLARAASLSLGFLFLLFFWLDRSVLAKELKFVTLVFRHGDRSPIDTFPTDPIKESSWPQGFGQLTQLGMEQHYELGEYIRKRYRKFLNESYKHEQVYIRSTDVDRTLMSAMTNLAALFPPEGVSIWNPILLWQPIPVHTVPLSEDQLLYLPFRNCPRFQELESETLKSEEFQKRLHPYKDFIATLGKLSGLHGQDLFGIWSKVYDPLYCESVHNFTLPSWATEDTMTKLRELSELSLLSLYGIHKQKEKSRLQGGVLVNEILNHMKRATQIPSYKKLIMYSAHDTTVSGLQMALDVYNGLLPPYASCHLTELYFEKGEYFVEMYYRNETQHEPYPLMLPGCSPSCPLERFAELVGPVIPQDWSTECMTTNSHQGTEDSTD
Numbers only, in µM.

{"columns": ["record-smiles", "unit-annotation", "endpoint-value"],
 "data": [
  ["COc1ccc([C@H](N[C@@H](C)c2ccccc2)P(=O)(O)O)cc1", "µM", 1.07]
]}

Now turn to the next compound.
Annotate the compound C[C@@H](N[C@H](c1ccccc1)P(=O)(O)O)c1ccccc1 with its measured IC50.
0.026
